Protocol Details: Tmax in ABT-treated NMRI mouse at 30 mg/kg, ip measured up to 6 hrs on day 1 by LC-MS/MS analysis
Type: ADME, organism-based
Applied Conditions: in vivo, dose 30 mg/kg/day
Readout Name: Tmax (min)
Respond numerically; units are min and should not be typed.

Give its Tmax value. Item: Cn1nccc1Nc1nc(NCC(F)(F)F)c2nc[nH]c2n1 30

====

Protocol Details: Tmax in ABT-treated NMRI mouse infected with Trypanosoma brucei brucei STIB795 at 30 mg/kg, ip measured up to 6 hrs on day 1 by LC-MS/MS analysis
Type: ADME, organism-based
Applied Conditions: in vivo, dose 30 mg/kg/day
Readout Name: Tmax (min)
Respond numerically; units are min and should not be typed.

Give its Tmax value. Item: Cn1nccc1Nc1nc(NCC(F)(F)F)c2nc[nH]c2n1 30
